Recorded pEC50 by entry
- tested-system: T1, human DLL4 extracellular domain (human, UniProt Q9NR61 27-529)
- T1 construct: purified recombinant ECD; biotin-labelled or 6xHis-tagged depending on the assay; also called huDLL4 ECD; hu DLL4 ECD
- T1 sequence (Q9NR61 27-529 limits assumed): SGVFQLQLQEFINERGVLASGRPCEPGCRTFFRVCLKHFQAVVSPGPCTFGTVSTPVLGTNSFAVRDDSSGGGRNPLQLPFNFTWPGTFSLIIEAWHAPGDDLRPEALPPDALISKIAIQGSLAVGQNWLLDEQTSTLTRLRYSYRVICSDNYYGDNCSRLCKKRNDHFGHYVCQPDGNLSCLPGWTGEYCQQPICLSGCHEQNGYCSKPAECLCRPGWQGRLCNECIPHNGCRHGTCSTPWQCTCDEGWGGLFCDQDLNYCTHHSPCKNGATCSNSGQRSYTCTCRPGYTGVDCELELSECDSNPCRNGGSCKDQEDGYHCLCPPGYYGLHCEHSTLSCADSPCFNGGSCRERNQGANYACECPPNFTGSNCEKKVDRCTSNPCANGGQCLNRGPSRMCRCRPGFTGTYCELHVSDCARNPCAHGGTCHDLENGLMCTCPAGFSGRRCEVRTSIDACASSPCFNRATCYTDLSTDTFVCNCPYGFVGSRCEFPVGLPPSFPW
- assay-remarks: binding ELISA
Friendly reminder that pEC50 comes from taking -log10 of the concentration in mol/L.

Below, each entry is followed by its recorded pEC50 result.
binder="h1A11.4 (antibody, V domains shown, humanized IgG; also called VH.1/VL.2a 1A11) VH: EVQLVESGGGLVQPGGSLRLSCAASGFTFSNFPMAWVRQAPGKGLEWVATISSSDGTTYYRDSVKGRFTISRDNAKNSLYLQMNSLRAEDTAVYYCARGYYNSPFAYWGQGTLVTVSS VL: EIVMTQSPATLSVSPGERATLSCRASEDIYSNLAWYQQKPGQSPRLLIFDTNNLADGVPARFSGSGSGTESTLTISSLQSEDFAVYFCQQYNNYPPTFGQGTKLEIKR" value_reported=10.10
binder="h1A11.7 (antibody, V domains shown, humanized IgG; also called VH.1a/VL.1b 1A11) VH: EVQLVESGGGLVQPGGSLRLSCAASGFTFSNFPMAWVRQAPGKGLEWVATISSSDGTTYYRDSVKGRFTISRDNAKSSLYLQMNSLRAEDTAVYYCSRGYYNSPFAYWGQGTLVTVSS VL: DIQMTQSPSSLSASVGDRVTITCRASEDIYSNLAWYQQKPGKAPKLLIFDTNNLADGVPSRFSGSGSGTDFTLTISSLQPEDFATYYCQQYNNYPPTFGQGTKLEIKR" value_reported=10.22
binder="h1A11.1 (antibody, V domains shown, humanized IgG; also called hu1A11.1; VH.1/VL.1 1A11) VH: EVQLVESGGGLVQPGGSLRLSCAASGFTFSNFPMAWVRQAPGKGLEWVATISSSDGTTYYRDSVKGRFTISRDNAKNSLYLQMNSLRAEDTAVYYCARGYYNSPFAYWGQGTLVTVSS VL: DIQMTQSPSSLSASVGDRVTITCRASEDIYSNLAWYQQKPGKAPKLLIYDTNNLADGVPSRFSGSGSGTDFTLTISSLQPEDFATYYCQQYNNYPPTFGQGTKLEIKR" value_reported=10.10

Query: // Input: h1A11.5 (antibody, V domains shown, humanized IgG; also called VH.1a/VL.1 1A11) VH: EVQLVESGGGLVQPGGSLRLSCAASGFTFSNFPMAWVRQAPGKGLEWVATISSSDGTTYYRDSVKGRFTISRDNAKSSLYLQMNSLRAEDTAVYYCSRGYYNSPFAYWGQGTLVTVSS VL: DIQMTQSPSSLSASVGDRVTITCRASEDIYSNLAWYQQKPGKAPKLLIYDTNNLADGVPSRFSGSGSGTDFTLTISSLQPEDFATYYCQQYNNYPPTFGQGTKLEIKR . Output its pEC50 only.
Response: 10.15

Query: // Input: h1A11.14 (antibody, V domains shown, humanized IgG; also called VH.2a/VL.1a 1A11) VH: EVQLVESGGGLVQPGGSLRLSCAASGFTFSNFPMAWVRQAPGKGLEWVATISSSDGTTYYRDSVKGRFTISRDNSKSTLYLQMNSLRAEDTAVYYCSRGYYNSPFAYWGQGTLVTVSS VL: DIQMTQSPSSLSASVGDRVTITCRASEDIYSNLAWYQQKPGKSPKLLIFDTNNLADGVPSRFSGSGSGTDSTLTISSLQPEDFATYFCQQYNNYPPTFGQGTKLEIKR . Output its pEC50 only.
Response: 10.26

Query: // Input: h1A11.13 (antibody, V domains shown, humanized IgG; also called VH.2a/VL.1 1A11) VH: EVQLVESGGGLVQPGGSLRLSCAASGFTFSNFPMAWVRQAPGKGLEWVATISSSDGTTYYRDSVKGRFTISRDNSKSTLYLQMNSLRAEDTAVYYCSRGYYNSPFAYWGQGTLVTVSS VL: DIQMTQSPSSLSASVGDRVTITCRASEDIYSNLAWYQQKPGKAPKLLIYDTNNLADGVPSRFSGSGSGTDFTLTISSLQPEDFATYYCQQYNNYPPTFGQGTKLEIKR . Output its pEC50 only.
Response: 10.22

Query: // Input: h1A11.12 (antibody, V domains shown, humanized IgG; also called VH.1b/VL.2a 1A11) VH: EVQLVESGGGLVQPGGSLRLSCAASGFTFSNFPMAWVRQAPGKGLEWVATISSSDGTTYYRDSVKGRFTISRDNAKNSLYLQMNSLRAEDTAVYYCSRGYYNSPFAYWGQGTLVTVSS VL: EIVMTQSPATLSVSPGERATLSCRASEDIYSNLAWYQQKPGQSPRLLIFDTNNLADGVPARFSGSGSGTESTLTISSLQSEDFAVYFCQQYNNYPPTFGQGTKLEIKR . Output its pEC50 only.
Response: 10.22
